Assay: NCI Yeast Anticancer Drug Screen. Data for the mlh1 rad18 strain (AID 175)
Settings: S. cerevisiae mlh1 rad18 strain growth inhibition; at 50.0 µM; active compounds read high
Compounds without any hit were thinned out: in the full panel of roughly 79,000, 15% have a hit.
Please provide measured growth inhibition for the entries that follow.
Give bare numbers, in %.

Field: example entries. Status: answers known.
C[CH2][Hg]    52.2
O=[As](O)(O)c1ccc(Cc2ccc([As](=O)(O)O)cc2)cc1    99.2

Reported growth inhibition for `CC[C@@H]1C[C@H]2CC3c4[nH]c5ccccc5c4CCN(C2)C31` : what is it?
65.8

====

Test: NCI Yeast Anticancer Drug Screen. Data for the rad50 strain (AID 155);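 note: 0% = growth of vehicle-only cultures of the same strain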
Details: S. cerevisiae rad50 strain growth inhibition; at 50.0 µM; active compounds read high
Experimental: Growth inhibition of yeast strains with defined genetic alterations is measured as a screen for potential anti-cancer activity. Selected strains with alterations in DNA damage repair or cell cycle control were exposed to compounds and growth inhibition was measured relative to vehicle treated controls. The strain used in this assay is rad50
The panel holds about 79,000 compounds, 15% with a hit somewhere; the sample as a whole holds those more often.
Threshold rule: growth inhibition greater than or equal to 20% is yes (1); below that, no (0).

Study these solved cases before continuing.
C[C@@H]1C[C@@H]([C@H](O)CC2CC(=O)NC(=O)C2)C(=O)[C@@H](C)C1    yes (1)
CN1CCN(c2nc(N)c(Br)c(Cl)n2)CC1    no (0)
N#CCCCCCl    no (0)
CC1(O)CCC(O)CC1CC(=O)O (stereo not given)    no (0)
CC(=O)[O-].N.N.N.N.[Co+3].[O-][Cl+3]([O-])([O-])[O-].[OH3+]    no (0)
CC(=N\O)/C(C)=N/O.CC(=N\O)/C(C)=N/O.CC(=N\O)/C(C)=N/O.CC(=N\O)/C(C)=N/O.[CH3-].[CH3-].[Co].[Co]    yes (1)
CC1CCC2NCCNC2C1 (stereo not given)    no (0)
S=C(SSC(=S)N(Cc1ccccc1)Cc1ccccc1)N(Cc1ccccc1)Cc1ccccc1    no (0)
CC1=CC(=O)C=CC1=O    yes (1)

Say whether `CC(C)CCC[C@@H](C)[C@H]1CC[C@H]2[C@@H]3CC=C4C[C@@H](OC(=O)Cl)CC[C@]4(C)[C@H]3CC[C@]12C` shows growth inhibition of 20% or more.
no (0)

====

Experiment: NCI Yeast Anticancer Drug Screen. Data for the bub3 strain (AID 167)
Details: S. cerevisiae bub3 mutant strain, at 50.0 µM, active compounds read high
Compounds without any hit were thinned out: in the full panel of roughly 79,000, 15% have a hit.
readoutKind: growth inhibition (%)
Give bare numbers, in %.

Observe how each entry below is paired with its result.
CC(C)[S-].CC(C)[S-].[Pt+2].c1ccc([PH+](c2ccccc2)c2ccccc2)cc1.c1ccc([PH+](c2ccccc2)c2ccccc2)cc1    67.3
CC(=O)Nc1ccc(NN=O)cn1    -37.8
COC1CC(OC2C(C)OC(OC3C(C)OC(OC4C(C)OC(O[C@H]5CC[C@@]6(C)C(=CC[C@]7(O)[C@@H]6C[C@@H](OC(C)=O)[C@@]6(C)[C@]7(O)CC[C@@]6(O)C(C)=O)C5)CC4OC)CC3OC)CC2OC)OC(C)C1O (stereo partly drawn)    -12.7
O=C=Nc1ccccc1Cl    4.2
CCn1nnnc1N    17.8
C[CH2][Sn]1([CH2]C)[O]C(=O)[O][Sn]([CH2]C)([CH2]C)[O]1    -6.05
COC(C)(C)[CH]([Hg][Cl])n1ccccc1=O (stereo not drawn)    99.1

I have this molecule here, `C[N+](C)(C)CCP(=O)([O-])O` , and I need its recorded growth inhibition.
-3.1

Where do the numbers come from? From PubChem BioAssay (NCI).
